Can you tell me EC50 for the items I'm about to list?
System: ZR-75-1
PROTOCOL_NOTES: Cytotoxicity against human ZR-75-1 cells after 3 days by SRB assay
Format: functional
CONDITION_INFO: ZR-75-1, 72 h, read-out: ED50 (the source's name)
Could you give me the number in µg/mL? Just the number is fine.

Problem: Data request, read-out EC50, for "c1ccc2c(c1)C[C@H]1NCCc3cc4c(c-2c31)OCO4"
Solution: 2.7

Problem: Fill blank: measured EC50 of the compound "COc1ccc2c(c1)C[C@@H]1c3c(cc4c(c3-2)OCO4)CCN1C" is ____.
Solution: 2.6

Problem: What measured EC50 goes with "COc1ccc2c(c1)C[C@H]1NCCc3cc4c(c-2c31)OCO4" ?
Solution: 2.4

Problem: Which EC50 is reported for this compound? "COc1cc2c(cc1O)C[C@H]1c3c(cc4c(c3-2)OCO4)CCN1C"
Solution: 9.8

Problem: What value of EC50 has been recorded for this entry: "COc1cc2c(cc1OC)-c1c3c(cc4c1[C@@H](C2)NCC4)OCO3"
Solution: 1.7

Problem: What EC50 value was documented for this compound, "CN1CCc2cc3c(c4c2[C@H]1Cc1cc(O)ccc1-4)OCO3" ?
Solution: 13.6

Problem: Request the reported EC50 associated with "COc1cc2c(cc1OC)-c1c3c(cc4c1[C@@H](C2)N(C)CC4)OCO3"
Solution: 2.8

Problem: Query (compound): "COc1cc2c(cc1O)-c1c3c(cc4c1[C@@H](C2)N(C)CC4)OCO3" ; field requested: EC50
Solution: 2.1

----------
Tested on: Plasmodium falciparum
PROTOCOL_NOTES: Antimalarial activity after 24 hrs against chloroquine-sensitive Plasmodium falciparum D6 infected type A+ human erythrocytes by [3H]hypoxanthine uptake
Format: functional
CONDITION_INFO: read-out: ED50 (the source's name)
I'd appreciate it if you could supply EC50 values for the items below.
Report only the number, with the unit µg/mL understood.

Problem: Entry under review: c1ccc2c(c1)C[C@H]1NCCc3cc4c(c-2c31)OCO4 [ANONAINE] . Reported EC50?
Solution: 1.29

Problem: Looking for the measured EC50 of "COc1cc2c(cc1OC)CN1CCc3cc(OC)c(OC)c(O)c3[C@@H]1C2" , can you help?
Solution: 2.23

Problem: What EC50 value was documented for this compound, OC(c1cc(C(F)(F)F)nc2c(C(F)(F)F)cccc12)C1CCCCN1 (stereo not given) [MEFLOQUINE] ?
Solution: 0.0073

Problem: Which EC50 reading was recorded for the compound "COc1cc2c(c(O)c1OC)CCN1Cc3c(ccc(OC)c3OC)C[C@@H]21" ?
Solution: 1.61

Problem: Reported EC50, compound "COc1cc2c(cc1OC)-c1c3c(cc4c1[C@@H](C2)N(C)CC4)OCO3" : ____
Solution: 1.26

----------
PROTOCOL_NOTES: Selectivity index, ED50 for human KB cells to ED50 for chloroquine-sensitive Plasmodium falciparum D6
Assay type: toxicity, cell-based
CONDITION_INFO: read-out: Ratio ED50
Give selectivity ratio for every item shown.
API note: the answer field is a bare number with no unit suffix.

Problem: Fill in the blank: the reported selectivity ratio of "COc1cc2c(cc1OC)-c1c3c(cc4c1[C@@H](C2)NCC4)OCO3" is ____.
Solution: 2

Problem: Recorded selectivity ratio for "CN1CCc2cc3c(c4c2[C@H]1Cc1cc(O)ccc1-4)OCO3" , please?
Solution: 2

Problem: What does the record list as selectivity ratio for "COc1ccc2c(c1)C[C@H]1NCCc3cc4c(c-2c31)OCO4" ?
Solution: 45

Problem: Recorded selectivity ratio of "COc1cc2c(cc1O)C[C@H]1c3c(cc4c(c3-2)OCO4)CCN1C" , please.
Solution: 2

Problem: I would be grateful if you could share the reported selectivity ratio for "c1ccc2c(c1)C[C@H]1NCCc3cc4c(c-2c31)OCO4" .
Solution: 5

Problem: GET /values?readout=selectivity ratio&item= "COc1cc2c(cc1OC)-c1c3c(cc4c1[C@@H](C2)N(C)CC4)OCO3"
Solution: 4

----------
PROTOCOL_NOTES: Cytotoxicity against human BCA1 cells after 3 days by SRB assay
Assay type: functional
CONDITION_INFO: BCA1, 72 h, read-out: ED50 (the source's name)
Assign EC50 to each entry below.
Dear colleague, please return just the value in µg/mL, with no unit written.

Problem: Entry under review: "c1ccc2c(c1)C[C@H]1NCCc3cc4c(c-2c31)OCO4" . Reported EC50?
Solution: 3.3

Problem: Sample "CN1CCc2cc3c(c4c2[C@H]1Cc1cc(O)ccc1-4)OCO3" — what was its EC50?
Solution: 8.9

Problem: Quick check: EC50 of "COc1cc2c(cc1O)-c1c3c(cc4c1[C@@H](C2)N(C)CC4)OCO3" ?
Solution: 2.5

Problem: Any idea what its EC50 is? The compound is "COc1ccc2c(c1)C[C@H]1NCCc3cc4c(c-2c31)OCO4"
Solution: 3.4

Problem: // lookup EC50 for "COc1cc2c(cc1OC)-c1c3c(cc4c1[C@@H](C2)NCC4)OCO3"
Solution: 2

Problem: Query (compound): "COc1ccc2c(c1)C[C@@H]1c3c(cc4c(c3-2)OCO4)CCN1C" ; field requested: EC50
Solution: 2.9

Problem: I would be grateful if you could share the reported EC50 for "COc1cc2c(cc1O)C[C@H]1c3c(cc4c(c3-2)OCO4)CCN1C" .
Solution: 6.8

Problem: # get_value(readout='EC50', item= "COc1cc2c(cc1OC)-c1c3c(cc4c1[C@@H](C2)N(C)CC4)OCO3" )
Solution: 2.2

----------
Please provide measured EC50 for the entries that follow.
Tested on: Plasmodium falciparum
PROTOCOL_NOTES: Antimalarial activity after 24 hrs against chloroquine-sensitive Plasmodium falciparum D6 infected type A+ human erythrocytes by [3H]hypoxanthine uptake
Type: functional
CONDITION_INFO: read-out: ED50 (the source's name)

Problem: Find EC50 (Plasmodium falciparum) for the entry CCN(CC)CCCC(C)Nc1ccnc2cc(Cl)ccc12 (stereo not drawn) [CHLOROQUINE]
Solution: 0.0013 µg/mL

Problem: Requested read-out EC50, target or system Plasmodium falciparum, entry COc1ccc2c(c1O)-c1c(O)c(OC)cc3c1[C@H](C2)[N+](C)(C)CC3 [MAGNOFLORINE]
Solution: > 10 µg/mL

Problem: API: value(readout=EC50, system=Plasmodium falciparum) for record "COc1cc2c(cc1O)-c1c3c(cc4c1[C@@H](C2)N(C)CC4)OCO3"
Solution: 2.01 µg/mL

Problem: Identify the measured EC50 of COc1cc2c(cc1O)C[C@H]1c3c(cc4c(c3-2)OCO4)CCN1C [CASSYTHICINE] for Plasmodium falciparum.
Solution: 2.29 µg/mL

Problem: Enter reported EC50 observed with Plasmodium falciparum for COc1cc2c(cc1OC)[C@@H]1Cc3ccc(OC)c(OC)c3CN1CC2 [TETRAHYDROPALMATINE]
Solution: > 10 µg/mL

Problem: Identify the measured EC50 of C[C@@H]1CC[C@H]2[C@@H](C)C(=O)O[C@@H]3O[C@@]4(C)CC[C@@H]1[C@]32OO4 [ARTEMISININ] for Plasmodium falciparum.
Solution: 0.0006 µg/mL

Problem: So what EC50 did "COc1cc2c(c(O)c1OC)[C@@H]1Cc3ccc(OC)c(OC)c3CN1CC2" get with Plasmodium falciparum?
Solution: 4.34 µg/mL

Problem: For Plasmodium falciparum, provide EC50 of COc1ccc(C[C@H]2c3cc(O)c(OC)cc3CCN2C)cc1O [(S)-RETICULINE] please.
Solution: 4.05 µg/mL

Problem: Reported EC50 for Plasmodium falciparum, given COc1ccc2c(c1O)C(Cc1ccc(O)cc1)[N+](C)(C)CC2.[Cl-] (racemic) ?
Solution: > 10 µg/mL

Problem: // fetch Plasmodium falciparum EC50 for "COc1cc2c(cc1OC)-c1c3c(cc4c1[C@@H](C2)NCC4)OCO3"
Solution: 0.47 µg/mL

Problem: Tell me reported EC50 for COc1cc2c(cc1OC)[C@@H]1Cc3ccc(OC)c(OC)c3C[N+]1(C)CC2.[Cl-] (stereo partly drawn) , tested with Plasmodium falciparum.
Solution: > 10 µg/mL

Problem: Write down the reported EC50 of "COc1ccc2c(c1)C[C@@H]1c3c(cc4c(c3-2)OCO4)CCN1C" , test system: Plasmodium falciparum.
Solution: 2.56 µg/mL

Problem: Find the measured EC50: item COc1c(O)cc2c3c1-c1ccccc1C[C@H]3NCC2 [(-)-ASIMILOBINE] , target or system Plasmodium falciparum.
Solution: 0.95 µg/mL

Problem: Test system Plasmodium falciparum; read-out EC50; what value for C=C[C@H]1CN2CC[C@H]1C[C@H]2[C@H](O)c1ccnc2ccc(OC)cc12 [QUININE] ?
Solution: 0.0094 µg/mL

Problem: Query the reported EC50 for Plasmodium falciparum; item: "COc1c(O[C@@H]2O[C@H](CO)[C@@H](O)[C@H](O)[C@H]2O)cc2c3c1-c1ccccc1C[C@H]3NCC2"
Solution: > 10 µg/mL

Problem: Requested read-out EC50, target or system Plasmodium falciparum, entry "COc1ccc2c(c1)C[C@H]1NCCc3cc4c(c-2c31)OCO4"
Solution: 0.44 µg/mL

Problem: Write down the reported EC50 of "CN1CCc2cc3c(c4c2[C@H]1Cc1cc(O)ccc1-4)OCO3" , test system: Plasmodium falciparum.
Solution: 3.15 µg/mL

Problem: // map COc1cc2c(cc1OC)CN1CCc3cc(OC)c(OC)cc3[C@@H]1C2 [XYLOPININE] to recorded EC50 (system: Plasmodium falciparum)
Solution: > 10 µg/mL
